# target_system: T1, human Trop2 on cells (human, UniProt P09758 27-323)
# T1 sequence (looked up): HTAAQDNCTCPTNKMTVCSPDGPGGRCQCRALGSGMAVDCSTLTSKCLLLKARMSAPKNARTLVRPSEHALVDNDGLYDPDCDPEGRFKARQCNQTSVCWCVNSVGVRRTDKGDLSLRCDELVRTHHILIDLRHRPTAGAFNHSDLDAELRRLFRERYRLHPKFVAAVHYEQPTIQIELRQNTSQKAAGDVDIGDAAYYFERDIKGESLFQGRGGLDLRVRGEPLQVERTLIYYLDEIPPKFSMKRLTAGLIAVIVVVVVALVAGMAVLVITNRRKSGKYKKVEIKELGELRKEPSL
# procedure_details: cell-based or functional assay
observed_property: ADCC (donor 1152#) EC50(nM), BxPC-3 + PBMC, LDH release
Write down the numeric answer in nM and omit the unit.

Look over these answered cases.
PR001142 (antibody, human IgG1, kappa, V domains shown, fully human IgG1/kappa; also called antibody No. (9)) VH: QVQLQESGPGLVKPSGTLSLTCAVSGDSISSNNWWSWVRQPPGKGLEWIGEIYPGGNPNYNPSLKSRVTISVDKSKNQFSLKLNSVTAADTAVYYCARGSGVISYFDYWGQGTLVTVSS VL: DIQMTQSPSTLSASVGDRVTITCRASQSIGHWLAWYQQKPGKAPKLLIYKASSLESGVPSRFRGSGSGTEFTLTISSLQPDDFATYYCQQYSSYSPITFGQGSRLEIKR = 0.0279
comparative example 2 antibody Tab (hRS7) (antibody, human IgG1, kappa, V domains shown, prepared on the basis of sacituzumab govitecan (ChemPartner, #T07-001); naked antibody) VH: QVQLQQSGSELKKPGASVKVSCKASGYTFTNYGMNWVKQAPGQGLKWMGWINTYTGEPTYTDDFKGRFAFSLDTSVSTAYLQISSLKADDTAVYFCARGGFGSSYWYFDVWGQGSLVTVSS VL: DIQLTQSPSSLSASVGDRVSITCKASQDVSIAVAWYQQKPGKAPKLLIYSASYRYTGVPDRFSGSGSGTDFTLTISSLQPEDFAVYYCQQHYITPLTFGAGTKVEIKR = 0.0391

Query (binder): PR001166 (antibody, human IgG1, kappa, V domains shown, fully human IgG1/kappa; also called antibody No. (27)) VH: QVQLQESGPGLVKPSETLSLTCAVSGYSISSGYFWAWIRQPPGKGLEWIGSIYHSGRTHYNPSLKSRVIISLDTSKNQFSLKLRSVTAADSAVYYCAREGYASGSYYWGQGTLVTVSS VL: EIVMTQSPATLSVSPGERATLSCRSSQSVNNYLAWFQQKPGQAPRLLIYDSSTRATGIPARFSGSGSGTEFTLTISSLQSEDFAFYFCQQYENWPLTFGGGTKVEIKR ; field requested: ADCC (donor 1152#) EC50(nM), BxPC-3 + PBMC, LDH release
0.02

Query (binder): PR001165 (antibody, human IgG1, kappa, V domains shown, fully human IgG1/kappa; also called antibody No. (26)) VH: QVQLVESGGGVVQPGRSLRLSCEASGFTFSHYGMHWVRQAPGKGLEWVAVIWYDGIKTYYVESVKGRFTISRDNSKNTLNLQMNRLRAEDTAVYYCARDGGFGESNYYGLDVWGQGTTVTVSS VL: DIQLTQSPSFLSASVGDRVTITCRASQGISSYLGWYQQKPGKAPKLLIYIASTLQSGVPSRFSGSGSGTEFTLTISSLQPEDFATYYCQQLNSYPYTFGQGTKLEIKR ; field requested: ADCC (donor 1152#) EC50(nM), BxPC-3 + PBMC, LDH release
0.0324
